Biological target: T1, recombinant human GM-CSF (Peprotech) (human, UniProt P04141 18-144)
T1 construct: Commercial recombinant protein; also called granulocyte-macrophage colony stimulating factor
T1 sequence (P04141 18-144 limits assumed): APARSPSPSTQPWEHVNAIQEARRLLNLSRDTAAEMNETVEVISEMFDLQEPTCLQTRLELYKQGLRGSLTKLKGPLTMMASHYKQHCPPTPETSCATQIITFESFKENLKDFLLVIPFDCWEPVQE
Test: SPR (BIAcore); recombinant human GM-CSF coupled to CM5 chip, antibody injected at 66.7-4.17 nM
Listed below: Ka values for each entry.

Observe how each entry below is paired with its result.
binder: hGM4/2 (antibody, V domains shown, Heavy h4/20 with human gamma 1 constant (hG1), light h4a with human kappa constant (hKa); also called h4K21-2) VH: EVQLVESGGGLVQPGGSLRLSCAASGFAFSAYDMSWVRQAPGKGLEWVSYISSGGSSFYYPDTVKGRFTISRDNAKNSLYLQMNSLRAEDTAVYYCARHLGFDYWGQGTLVTVSS VL: DVVMTQSPLSLPVTLGQPASISCRSSQSLVNSNGNTYLHWFQQRPGQSPRRLIYKVSNRFSGVPDRFSGSGSGTDFTLKISRVEAEDVGVYYCSQSTHVPPTFGGGTKVEIK
Ka: 3.5e+09 M⁻¹
//
binder: hGM4/3 (antibody, V domains shown, Heavy h4/30 with human gamma 1 constant (hG1), light h4a with human kappa constant (hKa); also called h4K21-3; 4K21-3) VH: EVQLVESGGGLVQPGGSLRLSCSASGFAFSAYDMSWVRQAPGKGLEWVAYISSGGSSFYYPDTVKGRFTISRDNAKNSLFLQMSSLRAEDTAVYYCARHLGFDYWGQGTTVTVSS VL: DVVMTQSPLSLPVTLGQPASISCRSSQSLVNSNGNTYLHWFQQRPGQSPRRLIYKVSNRFSGVPDRFSGSGSGTDFTLKISRVEAEDVGVYYCSQSTHVPPTFGGGTKVEIK
Ka: 7.1e+09 M⁻¹
//
binder: murine monoclonal antibody 4K21-O11-E14 (antibody, V domains shown, Murine hybridoma antibody (ECACC 07051601); also called 4K21-O11-E14 (mouse); mAb 4K21) VH: EVQLVESGGGLVKSGGSLKLSCAASGFAFSAYDMSWVRQTPEKRLELVAYISSGGSSFYYPDTVKGRFTISRDNAKNTLYLQMSSLKSEDTAMYYCTRHLGFDYWGQGTTLTVSS VL: DVVMTQTPLSLPVSLGDQASISCRSSQSLVNSNGNTYLHWFLQKPGQSPKLLIYKVSNRFSGVPDRFSGSGSGTDFTLKISRVEAEDLGVYFCSQSTHVPPTFGGGTKLEIK
Ka: > 5.9e+09 M⁻¹

Summary for this binder, hGM4/1 (antibody, V domains shown, Heavy h4/10 with human gamma 1 constant (hG1), light h4a with human kappa constant (hKa); also called h4K21-1; 4K21-1) VH: QVQLQESGGGLVKPGGSLKLSCAASGFAFSAYDMSWVRQTPDKRLEWVAYISSGGSSFYYPDTVKGRFTISRDNAKNTLYLQMSSLKSEDTAMYYCARHLGFDYWGQGTMVTVSS VL: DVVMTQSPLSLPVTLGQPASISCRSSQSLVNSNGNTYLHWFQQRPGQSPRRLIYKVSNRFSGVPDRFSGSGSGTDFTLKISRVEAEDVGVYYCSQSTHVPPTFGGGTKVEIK : Ka is 7.7e+09 M⁻¹

Summary for this binder, hGM4/6 (antibody, V domains shown, Heavy h4/10 with human gamma 1 constant (hG1), light h4b with human kappa constant (hKa); also called h4K21-6) VH: QVQLQESGGGLVKPGGSLKLSCAASGFAFSAYDMSWVRQTPDKRLEWVAYISSGGSSFYYPDTVKGRFTISRDNAKNTLYLQMSSLKSEDTAMYYCARHLGFDYWGQGTMVTVSS VL: DVVMTQSPLSLPVTLGQPASISCRSSQSLVNSNGNTYLHWFQQRPGQSPRRLIYKVSNRFSGVPDRFSGSGSGTDFTLKISRVEAEDVGVYYCSQSTHVPPTFGQGTKLEIK : Ka is 1.2e+10 M⁻¹

Summary for this binder, hGM4/5 (antibody, V domains shown, Heavy h4/50 with human gamma 1 constant (hG1), light h4a with human kappa constant (hKa); also called h4K21-5) VH: EVQLVESGGGLVKSGGSLTLSCAASGFAFSAYDMSWIRQAPGKGLEWVSYISSGGSSFYYPDTVKGRFTISRDNAKNSLYLQMNSLKDEDTAVYYCARHLGFDYWGQGTLVTVSS VL: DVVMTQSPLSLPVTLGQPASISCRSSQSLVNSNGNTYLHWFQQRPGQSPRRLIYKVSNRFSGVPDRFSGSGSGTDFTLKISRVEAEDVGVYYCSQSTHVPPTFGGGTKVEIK : Ka is 7.6e+09 M⁻¹

Data provenance is patent US20110044996A1.
